Target: B-cat-Halo (beta-catenin HaloTag NanoBRET construct expressed in HEK293 cells) (UniProt P35222)
Sequence (P35222 whole entry): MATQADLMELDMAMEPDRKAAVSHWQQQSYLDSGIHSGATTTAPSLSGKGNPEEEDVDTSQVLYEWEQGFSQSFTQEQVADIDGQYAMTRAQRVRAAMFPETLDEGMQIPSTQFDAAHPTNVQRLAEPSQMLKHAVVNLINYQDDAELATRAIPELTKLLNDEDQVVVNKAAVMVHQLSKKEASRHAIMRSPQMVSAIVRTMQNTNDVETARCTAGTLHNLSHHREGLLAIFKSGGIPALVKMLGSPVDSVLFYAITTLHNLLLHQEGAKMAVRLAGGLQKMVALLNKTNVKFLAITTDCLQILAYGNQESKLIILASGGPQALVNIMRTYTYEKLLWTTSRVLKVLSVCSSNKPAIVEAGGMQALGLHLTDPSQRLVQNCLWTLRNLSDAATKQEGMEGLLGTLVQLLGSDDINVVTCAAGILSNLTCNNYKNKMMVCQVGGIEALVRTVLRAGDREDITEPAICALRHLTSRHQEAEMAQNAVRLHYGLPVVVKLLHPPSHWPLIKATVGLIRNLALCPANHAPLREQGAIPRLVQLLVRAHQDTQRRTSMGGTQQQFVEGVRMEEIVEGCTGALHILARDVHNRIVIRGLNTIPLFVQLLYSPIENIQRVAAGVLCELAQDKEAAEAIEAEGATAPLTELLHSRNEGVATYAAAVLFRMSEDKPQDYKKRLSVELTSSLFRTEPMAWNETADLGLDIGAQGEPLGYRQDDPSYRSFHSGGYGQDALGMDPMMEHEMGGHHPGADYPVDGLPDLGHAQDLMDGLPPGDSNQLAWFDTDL
Assay: NanoBRET Abs IC50 in HEK293 cells; Bcat-Halo, TCF4-Luc as competitor
Starred links: 1 amine or outer side, 2 acyl side, 3 side chain; linkers in the order of their positions; H or OH if unused. Positions of bridges follow the written chain, without caps; N, C: chain ends. Non-standard residues stand in square brackets, D forms with d. Primed or numbered codes have the meaning given here. PyrS2″ = (S)-3-amino-1-((pent-4-en-1-yloxy)carbonyl)pyrrolidine-3-carboxylic acid (stapling residue), C=CCCCOC(=O)N1CC[C@@](N[*:1])(C(=O)[*:2])C1; B5(4) = 2,2-bis(4-pentenyl)glycine = 2-amino-2-(pent-4-en-1-yl)hept-6-enoic acid (stitching residue), C=CCCCC(CCCC=C)(N[*:1])C(=O)[*:2]; B5(5) = 2,2-bis(4-pentenyl)glycine, 2-amino-2-(pent-4-en-1-yl)hept-6-enoic acid (stitching residue), C=CCCCC(CCCC=C)(N[*:1])C(=O)[*:2]; TfeGA = (S)-2-amino-3-((carboxymethyl)(2,2,2-trifluoroethyl)amino)propanoic acid, O=C([C@H](CN(CC(=O)[*:3])CC(F)(F)F)N[*:1])[*:2]; Phe(2-Cl) = N[C@@H](Cc1ccccc1Cl)C(=O)O; 1Nal = N[C@@H](Cc1cccc2ccccc12)C(=O)O; 2Nal = N[C@@H](Cc1ccc2ccccc2c1)C(=O)O; Bta = N[C@@H](Cc1csc2ccccc12)C(=O)O; αAllylPro = C=CC[C@@]1(C(=O)O)CCCN1; tBuAla = CC(C)(C)C[C@H](N)C(=O)O; 3Thi = N[C@@H](Cc1ccsc1)C(=O)O; Thr(ol) = C[C@@H](O)[C@H](N)CO
measured_attribute: IC50 (µM)
Numbers only; they are read as µM.

- binder: "Ac-[αAllylPro]D[tBuAla][B5(5)]DDAAFT[PyrS2″][3Thi][1Nal]Q-NH2 (staple 1-4, 4-11) [I-1232]"
  measured_attribute: "IC50"
  readout_units: "µM"
  readout_value: 43.3
- binder: "Ac-[αAllylPro]D[tBuAla][B5(4)]D[TfeGA]AAFT[PyrS2″][Phe(2-Cl)][Bta][Thr(ol)] (staple 1-4, 4-11) [I-1241]"
  measured_attribute: "IC50"
  readout_units: "µM"
  readout_value: 15.7

Consider Ac-[αAllylPro]D[tBuAla][B5(5)]DDAAFT[PyrS2″][3Thi][2Nal]Q-NH2 (staple 1-4, 4-11) [I-1233] . Its measured IC50 is 54.5
